# Assayed target: ZFP SBS#1001 (synthetic)
# Sequence (chain, as listed by the source): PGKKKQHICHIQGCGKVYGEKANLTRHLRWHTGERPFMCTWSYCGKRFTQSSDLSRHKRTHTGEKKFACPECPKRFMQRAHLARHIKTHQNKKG
# Assay remarks: EMSA
# Condition details: tags: MBP fusion
Recorded metric: pKd
Note: pKd values are expressed as the negative base-10 logarithm of concentration in M.

Complete the entry with pKd for GGAGCTGAC (dsDNA) DNA 1: GGAGCTGAC DNA 2: GTCAGCTCC
8.74

The values you see were collected from patent US20030068675.
